- tgt: glucan synthase (GS) prepared from Candida albicans MY1055 (Candida albicans)
- Construct: Extraction of GS activity from membranes was performed at a protein concentration of 5 mg/mL in extraction buffer; endogenous in cells; host or cells: Candida albicans MY1055 (membranes, detergent extract, product entrapment)
- Sequence (O13428 1-1897): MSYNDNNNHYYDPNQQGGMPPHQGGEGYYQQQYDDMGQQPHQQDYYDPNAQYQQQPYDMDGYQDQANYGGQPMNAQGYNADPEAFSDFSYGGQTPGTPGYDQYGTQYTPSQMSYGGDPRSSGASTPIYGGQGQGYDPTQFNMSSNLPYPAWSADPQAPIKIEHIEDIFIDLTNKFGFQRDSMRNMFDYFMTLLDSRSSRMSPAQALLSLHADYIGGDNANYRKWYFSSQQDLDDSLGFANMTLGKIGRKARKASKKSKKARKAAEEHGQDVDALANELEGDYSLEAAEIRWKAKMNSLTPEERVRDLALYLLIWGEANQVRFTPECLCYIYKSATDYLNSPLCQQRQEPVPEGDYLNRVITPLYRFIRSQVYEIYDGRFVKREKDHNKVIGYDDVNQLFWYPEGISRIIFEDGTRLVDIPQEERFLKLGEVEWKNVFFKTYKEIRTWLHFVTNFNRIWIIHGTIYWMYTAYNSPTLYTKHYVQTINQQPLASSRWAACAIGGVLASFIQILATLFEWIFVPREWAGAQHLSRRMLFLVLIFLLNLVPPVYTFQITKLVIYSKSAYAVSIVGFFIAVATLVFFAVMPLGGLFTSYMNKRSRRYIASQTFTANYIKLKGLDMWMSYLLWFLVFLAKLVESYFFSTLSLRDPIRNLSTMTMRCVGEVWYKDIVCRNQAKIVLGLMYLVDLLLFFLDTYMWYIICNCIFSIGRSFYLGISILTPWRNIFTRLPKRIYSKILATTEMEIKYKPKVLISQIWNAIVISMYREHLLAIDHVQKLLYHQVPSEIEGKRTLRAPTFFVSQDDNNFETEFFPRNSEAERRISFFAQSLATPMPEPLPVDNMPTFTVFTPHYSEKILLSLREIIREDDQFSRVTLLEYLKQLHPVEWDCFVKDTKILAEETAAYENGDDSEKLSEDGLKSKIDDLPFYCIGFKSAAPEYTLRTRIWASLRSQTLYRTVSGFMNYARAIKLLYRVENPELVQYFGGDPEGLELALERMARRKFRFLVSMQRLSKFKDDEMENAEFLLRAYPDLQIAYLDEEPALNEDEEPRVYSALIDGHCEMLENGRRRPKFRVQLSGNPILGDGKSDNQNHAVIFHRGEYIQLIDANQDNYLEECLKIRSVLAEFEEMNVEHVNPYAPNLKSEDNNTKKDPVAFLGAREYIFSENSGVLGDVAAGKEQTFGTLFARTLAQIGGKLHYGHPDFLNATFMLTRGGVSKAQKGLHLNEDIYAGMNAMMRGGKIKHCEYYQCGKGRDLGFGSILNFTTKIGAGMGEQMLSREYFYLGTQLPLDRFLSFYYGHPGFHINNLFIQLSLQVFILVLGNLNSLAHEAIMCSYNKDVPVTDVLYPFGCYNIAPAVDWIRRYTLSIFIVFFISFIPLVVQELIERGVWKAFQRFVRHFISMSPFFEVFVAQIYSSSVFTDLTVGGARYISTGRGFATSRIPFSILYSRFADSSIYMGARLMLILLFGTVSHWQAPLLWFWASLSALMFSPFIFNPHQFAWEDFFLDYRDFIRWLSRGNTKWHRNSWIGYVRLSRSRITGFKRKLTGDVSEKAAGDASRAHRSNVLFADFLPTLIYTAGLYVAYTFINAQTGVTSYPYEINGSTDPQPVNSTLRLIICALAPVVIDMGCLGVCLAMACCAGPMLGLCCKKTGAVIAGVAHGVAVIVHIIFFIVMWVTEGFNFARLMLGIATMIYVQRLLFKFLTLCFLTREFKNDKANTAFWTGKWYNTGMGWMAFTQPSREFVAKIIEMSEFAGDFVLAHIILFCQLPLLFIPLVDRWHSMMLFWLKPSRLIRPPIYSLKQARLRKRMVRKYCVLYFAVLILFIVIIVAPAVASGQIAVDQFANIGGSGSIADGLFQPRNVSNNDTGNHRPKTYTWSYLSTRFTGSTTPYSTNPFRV
- Sequence (O42825 whole entry partner): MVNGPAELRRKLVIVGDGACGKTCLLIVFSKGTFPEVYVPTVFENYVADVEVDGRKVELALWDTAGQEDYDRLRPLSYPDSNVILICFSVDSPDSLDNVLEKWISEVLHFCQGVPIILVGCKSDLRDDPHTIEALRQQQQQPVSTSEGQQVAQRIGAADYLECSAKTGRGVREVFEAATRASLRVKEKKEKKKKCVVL
- assayName: Glucan synthase inhibition (polymerization assay, 96-well, 3H-UDPG incorporation)
- Type: biochemical
- conditionSet: glucan synthase from C. albicans MY1055
Hi there, I'd appreciate the recorded IC50 for every entry that follows.
Answer as a quantity: numeral, then unit.

Input: Complete the entry with IC50 for CC(=O)O[C@@H]1C[C@@]23COC[C@](C)(C2CC[C@H]2C3=CC[C@@]3(C)[C@H](C(=O)O)[C@@](C)([C@H](C)C(C)C)CC[C@]23C)[C@H]1OCCCCN (stereo partly drawn)
Output: 0.0515 µM

Input: Complete the entry with IC50 for COCC(CO[C@H]1[C@H](OC(C)=O)C[C@@]23COC[C@]1(C)[C@@H]2CC[C@H]1C3=CC(=O)[C@@]2(C)[C@H](C(=O)O)[C@@](C)([C@H](C)C(C)C)CC[C@]12C)N(C)C (stereo partly drawn)
Output: 0.161 µM

Input: Complete the entry with IC50 for CC(=O)O[C@@H]1C[C@@]23COC[C@](C)(C2CC[C@H]2C3=CC[C@@]3(C)[C@H](C(=O)O)[C@@](C)([C@H](C)C(C)C)CC[C@]23C)[C@H]1OCCNC[C@@H](N)CCCCN (stereo partly drawn)
Output: 0.0596 µM

Provenance of the data: patent US7863465B2
